target: T1, human CD4, cell-expressed (human, UniProt P01730 26-458); assay: flow cytometry on MOLM-13 cells (CD4, no IL12R or IL23R), upper right panel
T1 construct: whole, on cells
value-type: EC50 (read off the curve)

Consider the following illustrative entries.
{"binder": "CD4#8-35GS-IL23R#19 (bispecific antibody, also called BI#45; T023200045) EVQLVESGGGSVQPGGSLTLSCGTSGRTFNVMGWFRQAPGKEREFVAAVRWSSTGIYYTQYADSVKSRFTISRDNAKNTVYLEMNSLKPEDTAVYYCAADTYNSNPARWDGYDFRGQGTLVTVSSGGGGSGGGGSGGGGSGGGGSGGGGSGGGGSGGGGSEVQLVESGGGLVQPGGSLTLSCVASGRTFSTDVMGWFRQAPGKEREFVAAHRTSGISTVYAASVKGRFTISRDNAKNTVYLGMKSLKPEDTAVYVCAAGSDASGGYDYWGQGTLVTVSS", "EC50 (read off the curve)": "~1 nM"}
{"binder": "IL23R#20-35GS-CD4#8 (bispecific antibody, also called BI#43; T023200043) EVQLVESGGGLVQAGGSLRLSCAASGRTFSSYAMGWFRQAPGKDREFVAAISWIGESTYYADSVKGRFTISRDNAKNTVYLRMNSLKPEDTAVYYCAADLYYTAYVAAADEYDYWGQGTLVTVSSGGGGSGGGGSGGGGSGGGGSGGGGSGGGGSGGGGSEVQLVESGGGSVQPGGSLTLSCGTSGRTFNVMGWFRQAPGKEREFVAAVRWSSTGIYYTQYADSVKSRFTISRDNAKNTVYLEMNSLKPEDTAVYYCAADTYNSNPARWDGYDFRGQGTLVTVSS", "EC50 (read off the curve)": "~1 nM"}

Here is another binder to look at.
Q: Consider the binder shown here: CD4#8-35GS-IL23R#20 (bispecific antibody, also called BI#44; T023200044) EVQLVESGGGSVQPGGSLTLSCGTSGRTFNVMGWFRQAPGKEREFVAAVRWSSTGIYYTQYADSVKSRFTISRDNAKNTVYLEMNSLKPEDTAVYYCAADTYNSNPARWDGYDFRGQGTLVTVSSGGGGSGGGGSGGGGSGGGGSGGGGSGGGGSGGGGSEVQLVESGGGLVQAGGSLRLSCAASGRTFSSYAMGWFRQAPGKDREFVAAISWIGESTYYADSVKGRFTISRDNAKNTVYLRMNSLKPEDTAVYYCAADLYYTAYVAAADEYDYWGQGTLVTVSS What is its recorded EC50 (read off the curve)?
Result: ~1 nM
